# maps each entry to its thermal shift delta Tm
Test system: LOC_OS01G70970-cb002;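 note: purified Escherichia coli-expressed rice kinase domain construct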
Assay: thermal shift delta Tm vs DMSO control; higher = stronger stabilization (binding)
Conditions: 12.5 µM; protein concentration 2 µM
Counter-ions that a name gives are not always drawn.
Report field: quantity (unit follows the number).

The following compounds have reported results that may help.
{"columns": ["compound", "recorded-value"],
 "data": [
  ["Cc1ccccc1-n1c(Cn2nc(-c3cccc(O)c3)c3c(N)ncnc32)nc2cccc(C)c2c1=O", "0.24 °C"],
  ["CCN1CCN(Cc2ccc(Nc3ncc(F)c(-c4cc(F)c5nc(C)n(C(C)C)c5c4)n3)nc2)CC1", "-0.01 °C"],
  ["Oc1c(F)cc(-c2cnccc2-c2ccc(N3CCOCC3)cc2)cc1F", "0.21 °C"],
  ["COc1cc2nccc(Oc3ccc(NC(=O)NC4CC4)c(Cl)c3)c2cc1C(N)=O [Lenvatinib (E7080)]", "0.67 °C"],
  ["Cn1c2ccccc2c2c3c(c4c5ccccc5n(CCC#N)c4c21)CNC3=O", "3.29 °C"],
  ["CCN1CCN(Cc2ccc(-c3cc4c(N[C@H](C)c5ccccc5)ncnc4[nH]3)cc2)CC1", "0.5 °C"],
  ["Nc1[nH]nc2nnc(-c3c(-c4ccccc4)nn4ccccc34)cc12", "0.68 °C"],
  ["Cc1ncc(CCCN(C)C)cc1Nc1ncc2c(n1)-c1ccc(C(F)(F)F)cc1NC(=S)C2", "0.65 °C"],
  ["CCCCCCCCCCCCCCCCn1cc[n+](Cc2ccccc2)c1C", "-4.15 °C"],
  ["O=C(c1ccc(/C=C/c2n[nH]c3ccccc23)cc1)N1CCNCC1", "6.89 °C"]
]}

Q. What value of measured thermal shift delta Tm is listed for CNC(=O)c1cc(Oc2ccc(NC(=O)Nc3ccc(Cl)c(C(F)(F)F)c3)cc2)ccn1 [Sorafenib Tosylate] ?
A. 1.83 °C

Q. Query (compound): Oc1cccc(-c2nc(N3CCOCC3)c3oc4ncccc4c3n2)c1 ; field requested: thermal shift delta Tm
A. 0.33 °C

Q. May I ask what thermal shift delta Tm has been recorded for NC1(c2ccc(-c3nc4ccn5c(=O)[nH]nc5c4cc3-c3ccccc3)cc2)CCC1 ?
A. 0.31 °C

Q. Entry under review: C[C@@H](NC(=O)c1ncnc(N)c1Cl)c1ncc(C(=O)Nc2cc(C(F)(F)F)c(Cl)cn2)s1 . Reported thermal shift delta Tm?
A. 0.8 °C

Q. Look up thermal shift delta Tm: N=C(N)NC(=N)NCCc1ccccc1 [Phenformin HCl]
A. 0.29 °C

Q. Query (compound): CCCCCCCCc1ccc(CCC(N)(CO)CO)cc1 [Fingolimod (FTY720) HCl] ; field requested: thermal shift delta Tm
A. -0.82 °C

Q. Any idea what its thermal shift delta Tm is? The compound is COc1cc(CCc2cc(NC(=O)c3ccc(N4CC(C)NC(C)C4)cc3)n[nH]2)cc(OC)c1 (centres undefined)
A. 0.66 °C

Q. Name the recorded thermal shift delta Tm for N#Cc1ccc2[nH]c(O)c(-c3ccc(CN4CCOCC4)cn3)c2c1 .
A. 0.56 °C

Q. State the recorded thermal shift delta Tm for this entry: CC(C)(C)c1nc(-c2ccc(NC(=O)Nc3cccc(C(F)(F)F)c3)c3ccccc23)c2c(N)nccn12
A. 0.75 °C
